- Study system: T1, full-length human GLP-1R (GenBank NM_002062) with an N-terminal FLAG tag on HEK-293T cells (human), P43220
- T1 chain: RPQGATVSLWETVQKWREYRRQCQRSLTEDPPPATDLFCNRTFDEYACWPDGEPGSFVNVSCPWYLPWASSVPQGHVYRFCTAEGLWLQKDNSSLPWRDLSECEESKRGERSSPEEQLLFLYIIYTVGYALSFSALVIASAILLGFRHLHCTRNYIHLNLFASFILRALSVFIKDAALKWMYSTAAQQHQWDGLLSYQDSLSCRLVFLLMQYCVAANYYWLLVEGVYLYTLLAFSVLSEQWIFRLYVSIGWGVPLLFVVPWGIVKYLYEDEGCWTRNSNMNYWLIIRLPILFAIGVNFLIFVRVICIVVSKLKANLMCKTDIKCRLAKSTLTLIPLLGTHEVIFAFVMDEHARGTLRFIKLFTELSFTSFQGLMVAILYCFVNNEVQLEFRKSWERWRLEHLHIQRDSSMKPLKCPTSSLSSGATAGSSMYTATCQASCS
- Procedure summary: cell-based or functional assay
Square brackets hold non-standard residues; d marks the D form. Primed or numbered codes have the meaning given here. Side chains are listed from the residue outwards. Ends that are not written are not given here. * marks the point of attachment. C20 diacid = O=C(O)CCCCCCCCCCCCCCCCCCC(=O)*; C16 diacid = O=C(O)CCCCCCCCCCCCCCC(=O)*; Iva = CC[C@](C)(N)C(=O)O; PEG3′ = not defined here; Aib = CC(C)(N)C(=O)O
Would you mind telling me the reported log10 GLP EC50 of each entry?
Log scale reminder: GLP EC50 in nM, then log10 taken.

For each listed entry, give its log10 GLP EC50.
1. Y[Aib]EGTFISDYSIALDR[Aib]HQ[Aib]NFVNW[Iva]LAQRPSSGAPK([PEG3′-PEG3′-C20 diacid])PSR (ends and bridges not checked) [Compound No 929]
2. Y[Aib]EGTFISDYSIALDR[Aib]HQ[Aib]NFVNW[Iva]LAQRPK([PEG3′-PEG3′-C20 diacid])SGAPPPSR (ends and bridges not checked) [Compound No 894]
3. Y[Aib]EGTFISDYSIALDR[Aib]HQ[Aib]NFVNW[Iva]LAQRPK([PEG3′-PEG3′-C16 diacid])SGAPPPSR (ends and bridges not checked) [Compound No 892]
4. Y[Aib]EGTFISDYSIALDR[Aib]HQ[Aib]NFVNW[Iva]LAQRPSSGAPPK([PEG3′-PEG3′-C16 diacid])SR (ends and bridges not checked) [Compound No 933]
5. Y[Aib]EGTFISDYSIALDR[Aib]HQ[Aib]NFVNW[Iva]LAQRK([PEG3′-PEG3′-C20 diacid])SSGAPPPSR (ends and bridges not checked) [Compound No 913]

1.67
2.90
2.18
1.99
2.76
